Each entry below lists one item and its recorded log10 IC50 value.
# experimental_system: Nociceptin receptor (Homo sapiens, UniProt P41146)
# Sequence (P41146 whole entry): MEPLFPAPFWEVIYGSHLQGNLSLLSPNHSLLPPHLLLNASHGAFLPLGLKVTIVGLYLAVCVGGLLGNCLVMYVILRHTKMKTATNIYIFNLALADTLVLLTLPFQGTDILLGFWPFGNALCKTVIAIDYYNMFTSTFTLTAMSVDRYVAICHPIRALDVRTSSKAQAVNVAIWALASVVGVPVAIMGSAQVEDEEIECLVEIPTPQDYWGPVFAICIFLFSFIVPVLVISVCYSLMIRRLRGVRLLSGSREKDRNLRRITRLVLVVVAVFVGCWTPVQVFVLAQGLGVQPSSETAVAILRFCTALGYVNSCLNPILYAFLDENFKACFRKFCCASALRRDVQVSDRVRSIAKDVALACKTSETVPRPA
# experimental_protocol: Antagonist activity at ORL1 receptor expressed in CHO cells assessed as inhibition of NC/OFQ-stimulated [35S]GTPgammaS binding
# Format: functional, cell-based
property_name: log10 IC50 (log10 of the value in nM)

> print(dat)
                                   molecule  property.name  measurement
1  Cc1ncc(-c2c(C)c(CNC3CCCC3)nn2-c2ncccc2Cl)cc1F     log10 IC50         0.08
2  Cc1c(CNC(C)C)nn(-c2ccc(Cl)cc2Cl)c1-c1ccc(Cl)cc1     log10 IC50         2.68
3  Cc1ncc(-c2c(C)c(CN[C@H]3CC[C@@H](F)C3)nn2-c2ncccc2Cl)cc1F     log10 IC50        -0.51
4  Cc1c(CNC2CCCC2)nn(-c2ncccc2Cl)c1-c1ccc(Cl)nc1     log10 IC50         1.08
5  Cc1ccc(-c2c(C)c(CNC3CCC(F)(F)C3)nn2-c2ncccc2Cl)cn1 (stereo not drawn)     log10 IC50         0.65
6  Cc1ccc(-c2c(C)c(CNC3CCCC3)nn2-c2ncccc2Cl)cn1     log10 IC50         0.67
7  Cc1ccc(-c2c(C)c(CN[C@H]3CC[C@@H](F)C3)nn2-c2ncccc2Cl)cn1     log10 IC50         0.00
8  Cc1ccc(-c2c(C)c(CNC3CCCC3F)nn2-c2ncccc2Cl)cn1 (stereo not drawn)     log10 IC50         1.04

----------
# experimental_system: UniProt Q12809
# Sequence (Q12809 whole entry): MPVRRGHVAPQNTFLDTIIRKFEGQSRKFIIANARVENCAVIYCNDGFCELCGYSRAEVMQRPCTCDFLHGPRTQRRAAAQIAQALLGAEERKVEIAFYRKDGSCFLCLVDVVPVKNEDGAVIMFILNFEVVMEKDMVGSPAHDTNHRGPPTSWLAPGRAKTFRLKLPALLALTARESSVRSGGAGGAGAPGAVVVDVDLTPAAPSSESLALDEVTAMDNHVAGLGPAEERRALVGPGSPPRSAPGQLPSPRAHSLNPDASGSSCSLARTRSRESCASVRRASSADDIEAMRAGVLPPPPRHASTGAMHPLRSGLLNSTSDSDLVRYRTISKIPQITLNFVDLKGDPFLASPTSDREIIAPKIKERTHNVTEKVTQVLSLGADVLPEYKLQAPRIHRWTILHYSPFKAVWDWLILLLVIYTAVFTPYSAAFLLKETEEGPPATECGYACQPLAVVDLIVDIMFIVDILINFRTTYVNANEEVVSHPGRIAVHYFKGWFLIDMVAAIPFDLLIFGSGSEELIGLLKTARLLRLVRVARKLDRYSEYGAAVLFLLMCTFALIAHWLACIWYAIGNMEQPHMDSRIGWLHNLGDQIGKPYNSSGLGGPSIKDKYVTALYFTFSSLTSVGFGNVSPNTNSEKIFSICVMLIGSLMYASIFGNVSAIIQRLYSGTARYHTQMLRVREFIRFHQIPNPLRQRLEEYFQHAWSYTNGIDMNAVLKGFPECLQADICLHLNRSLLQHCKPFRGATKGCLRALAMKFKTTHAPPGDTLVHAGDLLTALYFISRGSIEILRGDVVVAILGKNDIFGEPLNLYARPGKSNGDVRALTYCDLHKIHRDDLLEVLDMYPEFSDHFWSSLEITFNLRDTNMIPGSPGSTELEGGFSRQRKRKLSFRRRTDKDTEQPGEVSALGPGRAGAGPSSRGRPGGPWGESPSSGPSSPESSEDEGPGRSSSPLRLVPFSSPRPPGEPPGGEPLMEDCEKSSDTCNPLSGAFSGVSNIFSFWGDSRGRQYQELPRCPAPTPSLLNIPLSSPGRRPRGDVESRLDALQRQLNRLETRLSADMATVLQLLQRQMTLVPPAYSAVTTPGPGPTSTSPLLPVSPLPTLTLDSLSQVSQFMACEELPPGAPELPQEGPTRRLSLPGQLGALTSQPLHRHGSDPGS
# experimental_protocol: Displacement of [35S]MK499 from human ERG expressed in HEK293 cells
property_name: IC50 (µM)

> print(dat)
                                   compound  result.units  measurement
1  Cc1c(CNC2CCCC2)nn(-c2ncccc2Cl)c1-c1cccnc1            µM           23
2  Cc1c(CNC2CCCC2)nn(-c2ccc(Cl)cc2Cl)c1-c1ccc(Cl)cc1            µM        0.023
3  Cc1ccc(-c2c(C)c(CNC3CCC(F)(F)C3)nn2-c2ncccc2Cl)cn1 (stereo not given)            µM           21
4  Cc1cncc(-c2c(C)c(CNC3CCCC3)nn2-c2ncccc2Cl)c1            µM            9
5  Cc1c(CNC(C)C)nn(-c2ccc(Cl)cc2Cl)c1-c1ccc(Cl)cc1            µM        0.023

----------
# experimental_system: UniProt:P35372
# Sequence (P35372 whole entry): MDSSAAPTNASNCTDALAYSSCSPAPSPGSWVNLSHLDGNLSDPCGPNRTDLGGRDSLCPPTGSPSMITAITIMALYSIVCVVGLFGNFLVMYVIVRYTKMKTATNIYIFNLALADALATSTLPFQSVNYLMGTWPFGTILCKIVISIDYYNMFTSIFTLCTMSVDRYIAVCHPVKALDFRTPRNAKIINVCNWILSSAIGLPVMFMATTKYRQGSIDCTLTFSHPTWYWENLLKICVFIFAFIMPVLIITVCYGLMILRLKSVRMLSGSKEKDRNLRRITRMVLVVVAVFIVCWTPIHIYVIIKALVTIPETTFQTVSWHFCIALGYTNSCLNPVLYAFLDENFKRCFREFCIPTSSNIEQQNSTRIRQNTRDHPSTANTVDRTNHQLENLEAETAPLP
# experimental_protocol: Displacement of [3H]diprenorphin from human cloned mu opioid receptor expressed in CHO cells
property_name: IC50 (µM)

> print(dat)
                    structure.smiles.string  experimental.system  property.name  result.units  measurement
1  Cc1ncc(-c2c(C)c(CN[C@H]3CC[C@@H](F)C3)nn2-c2ncccc2Cl)cc1F       UniProt:P35372           IC50            µM          5.6

----------
# experimental_system: Nociceptin receptor (Homo sapiens)
# experimental_protocol: Displacement of [125I]Tyr14-NC/OFQ from human ORL1 receptor
pIC50: −log10 of the molar value.
property_name: pIC50

> print(dat)
                                    compound  measurement
 1  Cc1cncc(-c2c(C)c(CNC3CCCC3)nn2-c2ncccc2Cl)c1         7.89
 2  CCc1ccc(-c2c(C)c(CNC3CCCC3)nn2-c2ncccc2Cl)cn1         7.17
 3  Cc1c(CNCCC(C)C)nn(-c2ccc(Cl)cc2Cl)c1-c1ccc(Cl)cc1         6.82
 4  Cc1c(CNC2CCCCC2)nn(-c2ccc(Cl)cc2Cl)c1-c1ccc(Cl)cc1         7.12
 5  Cc1ccc(-c2c(C)c(CNC3CCC(F)(F)C3)nn2-c2ncccc2Cl)cn1 (stereo unspecified)         8.03
 6  Cc1c(CNCC(C)C)nn(-c2ccc(Cl)cc2Cl)c1-c1ccc(Cl)cc1         6.82
 7  Cc1c(CNC2CCCC2)nn(-c2ncccc2Cl)c1-c1ccc(Cl)nc1         7.96
 8  Cc1ccc(-c2c(C)c(CNC3CCCC3)nn2-c2ncccc2S(C)(=O)=O)cn1         7.14
 9  Cc1c(CNC2CCCC2)nn(-c2ncccc2Cl)c1-c1cccnc1         7.21
10  Cc1ccc(-c2c(C)c(CNC3CCCC3)nn2-c2ncc(Cl)cc2Cl)cn1         8.09
11  Cc1ccc(-c2c(C)c(CNC3CCCC3F)nn2-c2ncccc2Cl)cn1 (stereo unspecified)         8.15
